This collection of values is drawn from paper PMC5540273.

- Tested on: PRKD3;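 also: KINOMEscan kinase panel screen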
- test.settings: concentration: 1 μM, replicates: in singlicate; n = 1
Hi there, I'd appreciate the recorded %Inh for every entry that follows.
One number for each entry, in %.

Example cases with answers are listed next.
{"structure.notation": "CN(C)CCNS(=O)(=O)c1ccc(-c2ccnc3[nH]ccc23)cc1", "%Inh [%]": 11}
{"structure.notation": "O=C1NC(=O)C(c2ccccc2Cl)=C1Nc1cccc(Cl)c1", "%Inh [%]": 22}

Count: 6. Required value per item: %Inh.
1. CC(=O)Nc1cn2nc(Oc3cccc(NC(=O)c4cccc(C(F)(F)F)c4)c3)ccc2n1
2. Cn1cc(-c2ccc3c(c2)CCN3C(=O)Cc2cc(F)cc(F)c2F)c2c(N)ncnc21
3. COc1cccc(NC(=O)NCCNc2ccnc(Nc3ccc(F)cc3)n2)c1
4. COc1cc(Nc2nccc(N3CCC(NS(=O)(=O)c4ccc(NC(C)=O)cc4)CC3)n2)cc(OC)c1OC
5. O=C(Nc1n[nH]c2nc(-c3ccccc3)ccc12)C1CC1
6. N#Cc1cnc2cc(-c3cnc(CNCCN4CCOCC4)s3)ccc2c1Nc1ccc(Oc2ccccc2)cc1

Solution:
1. 0
2. 0
3. 0
4. 0
5. 0
6. 9
